Listing of recorded pIC50 by entry.
# Tested Target: PD-L1-Biotin (UniProt Q9NZQ7 19-238, limits assumed, biotin label (site not stated))
# Sequence (Q9NZQ7 19-238 limits assumed): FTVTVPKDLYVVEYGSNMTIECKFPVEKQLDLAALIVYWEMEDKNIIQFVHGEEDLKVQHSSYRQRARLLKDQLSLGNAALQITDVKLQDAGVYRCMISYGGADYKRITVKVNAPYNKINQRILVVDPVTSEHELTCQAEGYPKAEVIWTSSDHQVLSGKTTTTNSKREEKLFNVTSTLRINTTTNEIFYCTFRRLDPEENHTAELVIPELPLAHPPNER
# Protocol Details: competitive FACS: blocks PD-L1-Biotin binding to 293T-PD-1 cells
pIC50 here is simply -log10 of the concentration when that concentration is written in mol/L.

| Binder | Endpoint Name | Observed Value |
| --- | --- | --- |
| antibody Chu (VHH, Humanized anti-PD-L1 nanobody) VHH: EVQLVESGGGLVQPGGSLRLSCAASGRDFLTYGMGWFRQAPGKGREFVASINWSGSMTYYADSVKGRFTISRDNAKNTVYLQMNSLKAEDTAVYICAARRGAVTYASSNEYEHWGQGTLVTVSS | pIC50 | 9.00 |
| antibody Bhu (VHH, Humanized anti-PD-L1 nanobody) VHH: QVQLVESGGGVVQPGGSLRLSCAASGFTFSSYAMRWVRQAPGKGLEWVAGINTGSEIVVYANSVRGRFTISRDNSRDTLYLQMNSLRAEDTAVYYCATGLVSAEHDGIWGQGTQVTVSS | pIC50 | 8.47 |
| antibody D1hu (VHH, Humanized anti-PD-L1 nanobody) VHH: EVQLVESGGGLVQPGGSLRLSCTASGRDFLTYGMGWFRQAPGKELEFVASINWSGSMTYYADSVKGRFTISRDNAKNTVYLQMNSLRAEDTAVYICAARRGAVTYASSNEYEHWGQGTQVTVSS | pIC50 | 8.59 |

Enquiry: Specify measured pIC50 for antibody Ahu (VHH, Humanized anti-PD-L1 nanobody) VHH: QVQLVESGGGVVQPGGSLRLSCAASGRSFSSSGMGWFRQAPGKGREFVATINSSGGDTYYRDSVEGRFTTSRDNSKNTMYLQMNSLRAEDTAVYYCAAKEGGGPSSIPAIYDYWGQGTLVTVSS .
Return: 8.40

Enquiry: Specify measured pIC50 for antibody E (VHH, Anti-PD-L1 alpaca nanobody) VHH: QVQLVESGGGLVQAGGSLRLSCAASGRSFSSSGMGWFRQAPGKDREFVATINSSGGDTYYADSVEGRFTTSRDNAKNTMSLQMNDLKPEDTAVYYCAAKEGGGPSSIPAIFDYWGQGTQVTVSS .
Return: 8.60

Enquiry: Specify measured pIC50 for antibody D2hu (VHH, Humanized anti-PD-L1 nanobody) VHH: EVQLVESGGGLVQPGGSLRLSCAASGRDFLTYGMGWFRQAPGKGLEFVASINWSGSMTYYADSVKGRFTISRDNAKNSVYLQMNSLRAEDTAVYICAARRGAVTYASSNEYEHWGQGTQVTVSS .
Return: 7.92

Enquiry: Specify measured pIC50 for antibody C (VHH, Anti-PD-L1 alpaca nanobody) VHH: EVQLVESGGGSVQTGGSLRLSCVASGRDFLTYGMGWFRQAPGKEREFVASINWSGSMTYYADSVKGRFTISRDNAKNTVYLQMNSLKPGDTAVYICAARRGAVTYASSNEYEHWGQGTQVTVSS .
Return: 8.78

Enquiry: Specify measured pIC50 for antibody D (VHH, Anti-PD-L1 alpaca nanobody) VHH: EVQLVESGGGLVQAGDSLRLSCTASGRDFLTYGMGWFRQAPGKEREFVASINWSGSMTYYADSVKGRFTISRDNAKNTVYLQMNSLKPGDTAVYICAARRGAVTYASSNEYEHWGQGTQVTVSS .
Return: 8.68

Enquiry: Specify measured pIC50 for antibody B (VHH, Anti-PD-L1 alpaca nanobody) VHH: QVQLVESGGGLVQPGGSLSLSCVASGFTFSSYAMRWVRQAPGKEPEWVAGINTGSEIVVYANSVRGRFAISRDNARDTLFLQMNSLKPEDTAVYYCATGLVSAEHDGIWGQGTQVTVSS .
Return: 8.68

Enquiry: Specify measured pIC50 for antibody A (VHH, Anti-PD-L1 alpaca nanobody) VHH: QVQLVESGGGLVQAGGSLRLSCAASGRSFSSSGMGWFRQAPGKDREFVATINSSGGDTYYRDSVEGRFTTSRDNAKNTMSLQMNDLKPEDTAVYYCAAKEGGGPSSIPAIYDYWGQGTQVTVSS .
Return: 8.99
